- SYSTEM_NAME: Vasopressin V1a receptor (Homo sapiens)
- Sequence (P37288 whole entry): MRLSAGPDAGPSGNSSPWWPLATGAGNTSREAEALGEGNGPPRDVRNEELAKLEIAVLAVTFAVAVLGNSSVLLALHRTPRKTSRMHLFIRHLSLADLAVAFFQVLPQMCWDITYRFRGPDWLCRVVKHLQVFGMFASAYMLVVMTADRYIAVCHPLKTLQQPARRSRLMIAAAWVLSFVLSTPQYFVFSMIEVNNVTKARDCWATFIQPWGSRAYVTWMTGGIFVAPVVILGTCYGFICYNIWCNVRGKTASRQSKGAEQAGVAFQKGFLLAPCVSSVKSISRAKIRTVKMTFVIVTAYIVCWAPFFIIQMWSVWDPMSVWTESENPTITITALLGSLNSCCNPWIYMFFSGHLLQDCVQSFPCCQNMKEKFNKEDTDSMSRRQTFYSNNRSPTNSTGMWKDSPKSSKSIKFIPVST
- PROTOCOL: Agonist activity at recombinant human vasopressin V1a receptor expressed in HEK293 cells by luciferase reporter gene assay
- Format: functional, cell-based
- DETAILS: read-out: EC50
Numbered stars: 1 amine (or outer) side, 2 acyl side, 3 side chain; on linkers, the order of the positions; unused ones are H or OH. Bridge positions count the residues as written; N and C are the ends. Square brackets hold non-standard residues; d marks the D form. Peptide text beside a SMILES is read from it. * marks the point of attachment. X5 = CC(C)CCNCCC[C@H](N[*:1])C(=O)[*:2]; Orn(iPr) = CC(C)NCCC[C@H](N)C(=O)O; 2Thi = N[C@@H](Cc1cccs1)C(=O)O; Aad = N[C@@H](CCCC(=O)O)C(=O)O; Orn = NCCC[C@H](N)C(=O)O; Dab = NCC[C@H](N)C(=O)O; NHOH = ON*
Give measured pEC50 for each item. Keep answers brief.
// pEC50: -log10(molar conc.)

Lookup: // query pEC50 value for entry CC[C@H](C)[C@@H]1NC(=O)[C@H](Cc2ccccc2)NC(=O)[C@@H](N)CSSC[C@@H](C(=O)N2CCC[C@H]2C(=O)N[C@@H](CCCN)C(=O)NCC(N)=O)NC(=O)[C@H](CC(N)=O)NC(=O)[C@H](CCCC(N)=O)NC1=O (H-CFI[Aad](NH2)NCP[Orn]G-NH2; disulfide 1-6)
Found: 9.05

Lookup: Could you share which pEC50 value was measured for CCNC(=O)CC[C@@H]1NC(=O)[C@H]([C@@H](C)CC)NC(=O)[C@H](Cc2ccccc2)NC(=O)[C@@H](N)CSSC[C@@H](C(=O)N2CCC[C@H]2C(=O)N[C@@H](CCCN)C(=O)NCC(N)=O)NC(=O)[C@H](CC(N)=O)NC1=O (H-CFIE(NHEt)NCP[Orn]G-NH2; disulfide 1-6) ?
Found: 7.41

Lookup: Fill in: pEC50 of CC[C@H](C)[C@@H]1NC(=O)[C@H](Cc2cnc[nH]2)NC(=O)[C@@H](N)CSSC[C@@H](C(=O)N2CCC[C@H]2C(=O)N[C@@H](CCN)C(=O)NCC(N)=O)NC(=O)[C@H](CC(N)=O)NC(=O)[C@H](CCC(N)=O)NC1=O (H-CHIQNCP[Dab]G-NH2; disulfide 1-6) is ___
Found: 6.29

Lookup: What value of measured pEC50 is listed for CC[C@H](C)[C@@H]1NC(=O)[C@H](Cc2ccccc2)NC(=O)[C@@H](N)CSSC[C@@H](C(=O)N2CCC[C@H]2C(=O)N[C@@H](CCCNCCC(C)C)C(=O)NCC(N)=O)NC(=O)[C@H](CC(N)=O)NC(=O)[C@H](CCC(N)=O)NC1=O (H-CFIQNCP[X5]G-NH2; disulfide 1-6) ?
Found: 9.09

Lookup: Need pEC50 of CC[C@H](C)[C@@H]1NC(=O)[C@H](Cc2cccs2)NC(=O)[C@@H](N)CSSC[C@@H](C(=O)N2CCC[C@H]2C(=O)N[C@@H](CCCNC(C)C)C(=O)NCC(N)=O)NC(=O)[C@H](CC(N)=O)NC(=O)[C@H](CCC(N)=O)NC1=O (H-C[2Thi]IQNCP[Orn(iPr)]G-NH2; disulfide 1-6) , thanks.
Found: 9.16

Lookup: Quick one: pEC50 of CC[C@H](C)[C@@H]1NC(=O)[C@H](Cc2ccccc2)NC(=O)[C@@H](N)CSSC[C@@H](C(=O)N2CCC[C@H]2C(=O)N[C@@H](CCCN)C(=O)NCC(N)=O)NC(=O)[C@H](CC(N)=O)NC(=O)[C@H](CC(=O)NO)NC1=O (H-CFID(NHOH)NCP[Orn]G-NH2; disulfide 1-6) ?
Found: 8.39

Lookup: I am curious: what pEC50 value has been reported for CC[C@H](C)[C@@H]1NC(=O)[C@H](Cc2ccccc2)NC(=O)[C@@H](N)CSSC[C@@H](C(=O)N2CCC[C@H]2C(=O)N[C@@H](CCCNC(C)C)C(=O)NCC(N)=O)NC(=O)[C@H](CC(N)=O)NC(=O)[C@H](CC(N)=O)NC1=O (H-CFINNCP[Orn(iPr)]G-NH2; disulfide 1-6) ?
Found: 8.85
